# target.system: Recombinant human renin (Homo sapiens, UniProt P00797)
# Sequence (P00797 67-406): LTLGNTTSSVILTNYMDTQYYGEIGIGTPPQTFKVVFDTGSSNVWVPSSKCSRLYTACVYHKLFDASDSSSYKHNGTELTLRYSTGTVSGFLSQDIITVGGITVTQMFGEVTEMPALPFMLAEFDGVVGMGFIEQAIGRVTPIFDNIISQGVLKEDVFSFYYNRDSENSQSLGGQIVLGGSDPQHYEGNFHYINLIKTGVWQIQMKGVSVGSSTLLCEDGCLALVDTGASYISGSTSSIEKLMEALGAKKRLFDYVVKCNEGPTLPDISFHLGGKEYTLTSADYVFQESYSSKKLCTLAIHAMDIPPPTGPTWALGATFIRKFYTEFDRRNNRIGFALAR
# experiment.summary: Inhibitory activity against human renin (fluorogenic peptide substrate)
# Type: biochemical
# run.conditions: 50% inhibitory concentration (IC50) against human renin, 37° C. for 1 hour
experimental.endpoint: pIC50
When answering, recall that pIC50 equals minus log10 of the concentration in mol/L, and write that number alone.

molecule | measured.value
COC(=O)NCCCc1cc([C@@H](C)N(C(=O)[C@H]2CN[C@@H](CF)CO2)C2CC2)nn1-c1ccc(F)cc1 | 8.22
COC(=O)NCCCc1cc([C@@H](C)N(C(=O)[C@H]2CNCCO2)C2CC2)sc1-c1cc(C(F)(F)F)ccc1C(=O)OC | 8.41
COC[C@@H]1CNC[C@H](C(=O)N(C2CC2)[C@H](C)c2nc(CCCNC(=O)OC)n(-c3cccc(Cl)c3)n2)O1 | 8.77
COC(=O)NCCCc1cc([C@H](C)N(C(=O)[C@H]2CNCCO2)C2CC2)cnc1C(C)C | 9.00
COC(=O)NCCCc1nc([C@@H](C)N(C(=O)[C@H]2CNCCO2)C2CC2)sc1C(=O)Nc1ccccc1OC | 8.10
COC(=O)NCCCn1nc([C@@H](C)N(C(=O)[C@H]2CN[C@@H](CC(F)F)CO2)C2CC2)c2ccc(C)nc21 | 8.92
COC(=O)NCCCn1nc([C@@H](C)N(C(=O)[C@H]2CNCCO2)C2CC2)cc1-c1cccc(C)n1 | 9.40
COCC(C)Oc1ncc(C(C)N(C(=O)C2CNCCO2)C2CC2)nc1CCCNC(=O)OC (centres unmarked) | 8.66

The molecule COC(=O)NCCCc1sc(C(C)N(C(=O)[C@H]2CNCCO2)C2CC2)cc1-c1ccccc1F (some centres unmarked) showed pIC50 equal to 8.47

Consider CCOC[C@@H]1CNC[C@H](C(=O)N(C2CC2)[C@@H](C)c2nn(CCCNC(=O)OC)c3nc(C)ccc23)O1 . Its measured pIC50 is 9.15

response.value for COC(=O)NCCCc1sc([C@@H](C)N(C(=O)[C@H]2CNCCO2)C2CC2)cc1-c1cnc(N)nc1 (field: pIC50) = 8.48

----------
# target.system: Recombinant human renin (Homo sapiens, UniProt P00797)
# experiment.summary: Inhibitory activity against human renin (fluorogenic peptide substrate)
# Assay type: biochemical
# run.conditions: 50% inhibitory concentration (IC50) against human renin, 37° C. for 1 hour
experimental.endpoint: IC50 (nM)
State just the number; it will be interpreted in nM.

Guide cases for IC50, answers given:
query.smiles | measured.value
COC(=O)NCCCn1nc([C@@H](C)N(C(=O)[C@H]2CNC[C@@H](C(F)(F)F)O2)C2CC2)c2ccc(C)nc21 | 3.1
COC(=O)NCCCc1cc([C@@H](C)N(C(=O)[C@H]2CNCCO2)C2CC2)nc2ccoc12 | 4.1
COC[C@H]1CO[C@@H](C(=O)N(C2CC2)[C@@H](C)c2nn(CCCNC(=O)OC)c(-c3ccccn3)c2C)CN1 | 5.3
COC(=O)NCCCn1cc([C@@H](C)N(C(=O)[C@H]2CN[C@@H](C)CO2)C2CC2)nc1-c1ccc(F)cc1 | 0.3
COCCCc1cc([C@@H](C)N(C(=O)[C@H]2CNC[C@@H](COC)O2)C2CC2)cc(CCCNC(=O)OC)n1 | 3.6
COC(=O)NCCCc1sc([C@H](C)N(C(=O)[C@H]2CNCCO2)C2CC2)cc1-c1cnc(N)nc1 | 3.8

// next entry
Notebook: COC(=O)NCCCc1cc([C@@H](C)N(C(=O)[C@H]2CNCCO2)C2CC2)nn1-c1ccccc1F , IC50 read as 0.5
